target_entity: T1, recombinant human cardiac troponin T (human, UniProt P45379 2-298)
T1 construct: In the ECL assay the cTnT came from the Troponin T hs CalSet calibrator; also called cTnT; TnT
assay_protocol: SPR (Biacore T200, 37 C), Fab captured, cTnT analyte
Give measured MR (Molar Ratio) for each item. Keep answers brief.
Answers are plain numbers.

// known answers, use as guide
anti-cTnT Fab mutant 3 (Y34F, F60W, V101Y) (Fab, V domains shown, also called combination 3) VH: EVQLQQSGPELVKPGASVKMSCKASGYTFTDYFMKWVKQSHGKSLEWIGDINPNNGETWYNQKFKDKATLTVDKSSSTAYMQLNSLTSEDSAVYYCATRYFDYWGQGTTLTVSS VL: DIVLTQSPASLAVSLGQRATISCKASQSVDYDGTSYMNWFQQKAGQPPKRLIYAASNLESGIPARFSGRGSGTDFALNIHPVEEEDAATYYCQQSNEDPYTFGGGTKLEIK	0.7
anti-cTnT Fab mutant 1 (Y34F) (Fab, V domains shown, also called combination 1) VH: EVQLQQSGPELVKPGASVKMSCKASGYTFTDYFMKWVKQSHGKSLEWIGDINPNNGETFYNQKFKDKATLTVDKSSSTAYMQLNSLTSEDSAVYYCATRVFDYWGQGTTLTVSS VL: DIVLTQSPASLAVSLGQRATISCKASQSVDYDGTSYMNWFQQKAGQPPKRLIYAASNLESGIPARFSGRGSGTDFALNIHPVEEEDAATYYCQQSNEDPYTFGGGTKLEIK	0.7

Report MR (Molar Ratio) for every entry below.
1. parental anti-cTnT Fab fragment (wildtype TnT M-7 Fab, from antibody 12.1A11.11-7) (Fab, V domains shown, also called wildtype Fab; TnT M-7 (wildtype) Fab) VH: EVQLQQSGPELVKPGASVKMSCKASGYTFTDYYMKWVKQSHGKSLEWIGDINPNNGETFYNQKFKDKATLTVDKSSSTAYMQLNSLTSEDSAVYYCATRVFDYWGQGTTLTVSS VL: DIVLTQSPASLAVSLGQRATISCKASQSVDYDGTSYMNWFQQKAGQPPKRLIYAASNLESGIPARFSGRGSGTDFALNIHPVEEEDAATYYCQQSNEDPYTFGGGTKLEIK
2. anti-cTnT Fab mutant 15 (Y34I, Y104F) (Fab, V domains shown, also called combination 15) VH: EVQLQQSGPELVKPGASVKMSCKASGYTFTDYIMKWVKQSHGKSLEWIGDINPNNGETFYNQKFKDKATLTVDKSSSTAYMQLNSLTSEDSAVYYCATRVFDFWGQGTTLTVSS VL: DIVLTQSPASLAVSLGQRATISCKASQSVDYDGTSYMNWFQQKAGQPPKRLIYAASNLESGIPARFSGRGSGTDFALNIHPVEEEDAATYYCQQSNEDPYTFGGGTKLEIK
3. anti-cTnT Fab mutant 2 (Y34F, F60W) (Fab, V domains shown, also called combination 2) VH: EVQLQQSGPELVKPGASVKMSCKASGYTFTDYFMKWVKQSHGKSLEWIGDINPNNGETWYNQKFKDKATLTVDKSSSTAYMQLNSLTSEDSAVYYCATRVFDYWGQGTTLTVSS VL: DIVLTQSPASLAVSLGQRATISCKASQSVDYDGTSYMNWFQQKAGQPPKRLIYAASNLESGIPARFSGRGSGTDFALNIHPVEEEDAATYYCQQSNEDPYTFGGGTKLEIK
4. anti-cTnT Fab mutant 12 (Y34I, F60W, Y104F) (Fab, V domains shown, also called combination 12; combination "12") VH: EVQLQQSGPELVKPGASVKMSCKASGYTFTDYIMKWVKQSHGKSLEWIGDINPNNGETWYNQKFKDKATLTVDKSSSTAYMQLNSLTSEDSAVYYCATRVFDFWGQGTTLTVSS VL: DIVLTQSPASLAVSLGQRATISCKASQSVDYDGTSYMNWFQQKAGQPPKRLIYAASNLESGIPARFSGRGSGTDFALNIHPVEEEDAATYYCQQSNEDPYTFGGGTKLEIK
5. anti-cTnT Fab mutant 23 (F60W, V101Y + Y104F) (Fab, V domains shown, it was tied to mutant 23 by the printed mutations; also called combination 23) VH: EVQLQQSGPELVKPGASVKMSCKASGYTFTDYYMKWVKQSHGKSLEWIGDINPNNGETWYNQKFKDKATLTVDKSSSTAYMQLNSLTSEDSAVYYCATRYFDFWGQGTTLTVSS VL: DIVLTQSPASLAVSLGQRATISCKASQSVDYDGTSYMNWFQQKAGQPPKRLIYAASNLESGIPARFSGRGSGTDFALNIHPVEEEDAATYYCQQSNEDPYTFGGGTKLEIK

[0.6, 0.7, 0.7, 0.5, 0.6]

Dear colleague, I am looking for the recorded MR (Molar Ratio) of the following binder: anti-cTnT Fab mutant 16 (Y34I, V101Y + Y104F) (Fab, V domains shown, also called combination 16) VH: EVQLQQSGPELVKPGASVKMSCKASGYTFTDYIMKWVKQSHGKSLEWIGDINPNNGETFYNQKFKDKATLTVDKSSSTAYMQLNSLTSEDSAVYYCATRYFDFWGQGTTLTVSS VL: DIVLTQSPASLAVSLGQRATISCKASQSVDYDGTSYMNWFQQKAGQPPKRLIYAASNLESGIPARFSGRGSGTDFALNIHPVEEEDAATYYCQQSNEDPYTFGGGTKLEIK
0.6
